experiment: in vitro; conditions: human
Structures can show the parent of a compound that is named as a salt.
Entries and their CC50 values follow.
Write it as a number; the unit µM goes unstated.

Below, each entry is followed by its recorded CC50 result.
CC(C)N(CCC(=O)c1ccc2ccccc2c1)Cc1ccccc1 [LI7, ZM 39923 HCl]; 12.2
O=c1c(O)c(-c2cc(O)c(O)c(O)c2)oc2cc(O)cc(O)c12 [LI8, Myricetin]; 41.6
Nc1c(S(=O)(=O)O)cc(Nc2ccc(Nc3nc(Cl)nc(Nc4cccc(S(=O)(=O)O)c4)n3)c(S(=O)(=O)O)c2)c2c1C(=O)c1ccccc1C2=O [LI4, Reactive Blue 2]; 52.6
NCCOc1cc(C(=O)Nc2cc(OCCN)c3ccccc3n2)nc(C(=O)Nc2cc(OCCN)c3ccccc3n2)c1 [LI3, Pyridostatin xCF3COO^-]; 59.3

# input For Clc1cccc(/C=C/c2nn3c(-c4ccco4)nnc3s2)c1 [OI2] , what is its reported CC50?
# output 71.3

# input For Cc1cc(-c2ccc(/N=N/c3ccc4c(S(=O)(=O)O)cc(S(=O)(=O)O)c(N)c4c3O)c(C)c2)ccc1/N=N/c1ccc2c(S(=O)(=O)O)cc(S(=O)(=O)O)c(N)c2c1O [FI7, Evans Blue] , what is its reported CC50?
# output 35.6
